# System: α-synuclein aggregate
# Run description: Test 11: reducing the accumulation of α-synuclein aggregate in dopamine neurospheroid from GBA1 mutant human iPS cells
# Assay type: cell-based
# Measurement parameters: 1000 nM, compound added day 40, measured day 44, DMSO = 100%
# maps each entry to its Amount of aggregate (%) 1000 nM

{"columns": ["Compound", "Amount of aggregate (%) 1000 nM"],
 "data": [
  ["Cn1cccc/c1=N\\C(=O)C1(C)COC1 [Example 2]", 37],
  ["COc1ccn(C)/c(=N/C(=O)C2(C)CN(C)C2)c1 [Example 51]", 30],
  ["CCn1cccc/c1=N\\C(=O)C1(C)COC1 [Example 3]", 39],
  ["CCC1(C(=O)/N=c2\\ccccn2C)COC1 [Example 1]", 19]
]}
